Test system: C2C12
Experiment: Inhibition of TGFbeta1-induced fibrosis in mouse C2C12 cells assessed as reduction in SMalpha22 protein expression level at 10 uM preincubated for 30 mins followed by TGFbeta1 addition and measured after 48 hrs by Western blot analysis
Assay type: functional, cell-based
Calls of active or inactive are those of the source. The calls are words filed in the database; no cut-off is given here.
Select the matching outcome among active, inactive

Here's what some known entries look like.
# smiles_structure, qualitative_label
data = [
    ("CC(=O)OC[C@H]1O[C@@H](OCc2ccc(COc3cc(C)cc(CS(=O)(=O)c4ccccc4)c3)cc2)[C@H](OC(C)=O)[C@@H](OC(C)=O)[C@@H]1OC(C)=O", "active"),
    ("Cc1cc(CS(=O)(=O)c2ccccc2)cc(OCc2ccc(CN3CCC[C@@H]3CO)cc2)c1", "active"),
    ("Cc1cc(CS(=O)(=O)c2ccccc2)cc(OCc2ccc(CO[C@@H]3O[C@H](CO)[C@@H](O)[C@H](O)[C@H]3O)cc2)c1", "active"),
]

API: the following record is the query input.
So what was the verdict on Cc1cc(CS(=O)(=O)c2ccccc2)cc(OCc2ccc(CO[C@@H]3O[C@H](CO)[C@H](O)[C@H](O)[C@H]3O)cc2)c1 in this test?
inactive
